meta.source: patent US20230017786A1

Assayed System: human NMDA receptor GluN1-GluN2D (Homo sapiens, UniProt O15399+Q05586)
Construct: expressed in transfected cells; host or cells: CHO
Sequence (O15399 28-1336, other chains not shown): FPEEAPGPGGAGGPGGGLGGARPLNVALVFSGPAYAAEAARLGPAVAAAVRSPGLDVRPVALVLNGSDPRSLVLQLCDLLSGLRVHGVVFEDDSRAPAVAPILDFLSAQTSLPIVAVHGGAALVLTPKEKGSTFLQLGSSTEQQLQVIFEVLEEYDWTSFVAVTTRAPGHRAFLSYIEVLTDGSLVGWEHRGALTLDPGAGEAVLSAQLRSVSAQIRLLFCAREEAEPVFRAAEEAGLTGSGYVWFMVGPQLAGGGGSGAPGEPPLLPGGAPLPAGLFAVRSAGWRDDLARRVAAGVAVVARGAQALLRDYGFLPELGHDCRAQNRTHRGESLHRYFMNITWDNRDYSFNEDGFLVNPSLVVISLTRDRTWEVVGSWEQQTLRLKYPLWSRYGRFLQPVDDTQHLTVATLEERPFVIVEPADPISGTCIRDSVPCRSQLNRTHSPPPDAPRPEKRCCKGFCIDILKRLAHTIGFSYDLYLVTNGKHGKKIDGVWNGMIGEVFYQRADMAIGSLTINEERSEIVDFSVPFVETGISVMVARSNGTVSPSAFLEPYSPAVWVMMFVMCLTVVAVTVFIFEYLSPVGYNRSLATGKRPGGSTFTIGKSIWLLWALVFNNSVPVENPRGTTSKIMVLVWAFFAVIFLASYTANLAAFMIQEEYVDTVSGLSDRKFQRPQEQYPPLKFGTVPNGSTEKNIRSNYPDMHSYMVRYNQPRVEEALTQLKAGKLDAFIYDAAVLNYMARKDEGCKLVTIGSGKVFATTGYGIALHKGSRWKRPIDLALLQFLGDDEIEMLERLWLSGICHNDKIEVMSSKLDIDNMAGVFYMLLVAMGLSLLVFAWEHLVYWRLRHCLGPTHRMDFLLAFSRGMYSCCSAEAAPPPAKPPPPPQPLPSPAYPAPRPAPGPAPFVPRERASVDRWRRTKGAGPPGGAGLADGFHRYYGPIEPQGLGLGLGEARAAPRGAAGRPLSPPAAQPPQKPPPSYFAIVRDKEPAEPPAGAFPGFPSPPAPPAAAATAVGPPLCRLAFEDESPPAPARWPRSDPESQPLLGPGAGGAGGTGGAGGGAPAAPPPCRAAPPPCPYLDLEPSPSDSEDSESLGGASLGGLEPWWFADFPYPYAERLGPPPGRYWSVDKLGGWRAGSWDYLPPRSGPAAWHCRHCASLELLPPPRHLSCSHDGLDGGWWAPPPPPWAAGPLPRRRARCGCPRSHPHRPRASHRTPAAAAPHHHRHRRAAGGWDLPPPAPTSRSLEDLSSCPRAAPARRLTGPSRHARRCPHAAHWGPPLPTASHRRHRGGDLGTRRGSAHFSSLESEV
Protocol Notes: FLIPR calcium assay, test item effect on L-glutamate CRC, GluN1-GluN2D-CHO
Assay type: cell-based
Details: with test item 50 μM
Structures can show the parent of a compound that is named as a salt.
Recorded Metric: L-glutamate CRC LogEC50
Answers are plain numbers.

Some solved entries appear below for comparison.
{"columns": ["Compound", "L-glutamate CRC LogEC50"],
 "data": [
  ["COc1ccc2c(c1)[C@]13CCCC[C@@H]1[C@H](C2)N(C)CC3 [Dextromethorphan, hydrobromide monohydrate]", "−6.8"],
  ["CNC1(c2ccccc2Cl)CCCCC1=O (racemic) [(±)-Ketamine, (±)-ketamine hydrochloride]", "−6.7"],
  ["CCC(=O)C(C[C@H](C)N(C)C)(c1ccccc1)c1ccccc1", "−6.9"]
]}

Shifting focus to the compound that follows.
**Query** What value of L-glutamate CRC LogEC50 has been reported for the following compound? CC12CC3CC(C)(C1)CC(N)(C3)C2 [Memantine, memantine hydrochloride]
**Result** −37

---

Assayed System: human NMDA receptor GluN1-GluN2C (Homo sapiens, UniProt Q05586+Q14957)
Construct: expressed in transfected cells; host or cells: CHO
Sequence (Q14957 20-1233, other chains not shown): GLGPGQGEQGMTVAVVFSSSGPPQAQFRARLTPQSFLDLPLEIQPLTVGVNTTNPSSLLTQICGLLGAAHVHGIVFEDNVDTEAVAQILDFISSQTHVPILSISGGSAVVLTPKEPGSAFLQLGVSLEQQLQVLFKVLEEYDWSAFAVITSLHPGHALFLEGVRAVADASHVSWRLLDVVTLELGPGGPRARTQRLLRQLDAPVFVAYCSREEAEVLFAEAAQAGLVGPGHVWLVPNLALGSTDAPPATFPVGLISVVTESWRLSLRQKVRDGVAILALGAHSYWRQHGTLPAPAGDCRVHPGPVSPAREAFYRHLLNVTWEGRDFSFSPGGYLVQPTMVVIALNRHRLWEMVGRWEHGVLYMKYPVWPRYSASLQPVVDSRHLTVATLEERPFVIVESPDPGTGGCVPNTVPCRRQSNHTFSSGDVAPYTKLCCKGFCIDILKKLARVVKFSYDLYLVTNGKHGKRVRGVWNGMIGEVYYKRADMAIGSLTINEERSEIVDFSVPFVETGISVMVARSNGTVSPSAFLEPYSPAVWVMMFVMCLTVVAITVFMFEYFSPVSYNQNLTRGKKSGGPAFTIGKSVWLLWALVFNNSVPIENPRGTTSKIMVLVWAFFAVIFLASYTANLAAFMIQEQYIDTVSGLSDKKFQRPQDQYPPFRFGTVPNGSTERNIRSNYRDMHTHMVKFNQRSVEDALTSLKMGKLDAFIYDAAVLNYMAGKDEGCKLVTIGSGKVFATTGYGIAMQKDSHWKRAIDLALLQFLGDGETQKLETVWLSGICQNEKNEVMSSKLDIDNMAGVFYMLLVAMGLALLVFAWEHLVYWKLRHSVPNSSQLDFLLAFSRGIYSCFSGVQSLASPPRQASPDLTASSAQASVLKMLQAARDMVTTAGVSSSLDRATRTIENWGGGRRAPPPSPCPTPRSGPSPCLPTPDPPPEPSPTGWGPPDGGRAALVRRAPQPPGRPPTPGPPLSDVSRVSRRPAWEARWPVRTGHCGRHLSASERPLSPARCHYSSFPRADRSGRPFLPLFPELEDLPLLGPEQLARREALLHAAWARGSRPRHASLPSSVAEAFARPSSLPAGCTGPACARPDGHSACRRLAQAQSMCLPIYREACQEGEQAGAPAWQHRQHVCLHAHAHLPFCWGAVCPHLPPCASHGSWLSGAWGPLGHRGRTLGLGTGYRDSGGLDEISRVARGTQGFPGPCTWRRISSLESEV
Protocol Notes: FLIPR calcium assay, test item effect on L-glutamate CRC, GluN1-GluN2C-CHO
Type: cell-based
Details: with test item 12.5 μM
Where a name gives a salt, the structure may show the parent alone.
What L-glutamate CRC LogEC50 was measured for each of the following?
Give bare numbers.

Some solved entries appear below for comparison.
{"columns": ["Compound", "Recorded Measurement"],
 "data": [
  ["CNC1(c2ccccc2Cl)CCCCC1=O (racemic) [(±)-Ketamine, (±)-ketamine hydrochloride]", "−6.7"],
  ["CCC(=O)C(C[C@H](C)N(C)C)(c1ccccc1)c1ccccc1 [Dextromethadone, dextromethadone]", "−6.7"],
  ["CC12CC3CC(C)(C1)CC(N)(C3)C2 [Memantine, memantine hydrochloride]", "−6.4"]
]}

Shifting focus to the compound that follows.
**Query** What value of L-glutamate CRC LogEC50 has been reported for the following compound? COc1ccc2c(c1)[C@]13CCCC[C@@H]1[C@H](C2)N(C)CC3 [Dextromethorphan, hydrobromide monohydrate]
**Result** −6.7

---

What L-glutamate CRC HillSlope was measured for each of the following?
Assayed System: human NMDA receptor GluN1-GluN2C (Homo sapiens, UniProt Q05586+Q14957)
Construct: expressed in transfected cells; host or cells: CHO
Protocol Notes: FLIPR calcium assay, test item effect on L-glutamate CRC, GluN1-GluN2C-CHO
Assay type: cell-based
Details: with test item 3.1 μM
Counter-ions that a name gives are not always drawn.
Give bare numbers.

Some solved entries appear below for comparison.
{"columns": ["Compound", "Assayed System", "L-glutamate CRC HillSlope"],
 "data": [
  ["COc1ccc2c(c1)[C@]13CCCC[C@@H]1[C@H](C2)N(C)CC3 [Dextromethorphan, hydrobromide monohydrate]", "human NMDA receptor GluN1-GluN2C (Homo sapiens, UniProt Q05586+Q14957)", 1.6],
  ["CNC1(c2ccccc2Cl)CCCCC1=O (racemic) [(±)-Ketamine, (±)-ketamine hydrochloride]", "human NMDA receptor GluN1-GluN2C (Homo sapiens, UniProt Q05586+Q14957)", 1.2],
  ["CCC(=O)C(C[C@H](C)N(C)C)(c1ccccc1)c1ccccc1", "human NMDA receptor GluN1-GluN2C (Homo sapiens, UniProt Q05586+Q14957)", 1.4]
]}

Shifting focus to the compound that follows.
**Query** What value of L-glutamate CRC HillSlope has been reported for the following compound? CC12CC3CC(C)(C1)CC(N)(C3)C2 [Memantine, memantine hydrochloride]
**Result** 1.2

---

Assayed System: human NMDA receptor GluN1-GluN2C (Homo sapiens, UniProt Q05586+Q14957)
Construct: expressed in transfected cells; host or cells: CHO
Protocol Notes: FLIPR calcium assay, quinolinic acid, gentamicin, dextromethadone (Example 5 Part II), GluN1-GluN2C-CHO
Type: cell-based
Details: 10 μM glycine; read-out: EC50
pEC50: −log10 of the molar value.
Recorded Metric: pEC50

**Query** Given the entry O=C(O)c1cccnc1C(=O)O , what pEC50 was observed with human NMDA receptor GluN1-GluN2C (Homo sapiens, UniProt Q05586+Q14957)?
**Result** < 3.00

---

Assayed System: human NMDA receptor GluN1-GluN2D (Homo sapiens, UniProt O15399+Q05586)
Construct: expressed in transfected cells; host or cells: CHO
Protocol Notes: FLIPR calcium assay, test item effect on L-glutamate CRC, GluN1-GluN2D-CHO
Type: cell-based
Details: with test item 49 nM
Structures can show the parent of a compound that is named as a salt.
Recorded Metric: L-glutamate CRC HillSlope
Give bare numbers.

Some solved entries appear below for comparison.
{"columns": ["Compound", "Recorded Measurement"],
 "data": [
  ["CC12CC3CC(C)(C1)CC(N)(C3)C2 [Memantine, memantine hydrochloride]", 1.4],
  ["COc1ccc2c(c1)[C@]13CCCC[C@@H]1[C@H](C2)N(C)CC3 [Dextromethorphan, hydrobromide monohydrate]", 1.7],
  ["CNC1(c2ccccc2Cl)CCCCC1=O (racemic) [(±)-Ketamine, (±)-ketamine hydrochloride]", 1.6]
]}

Shifting focus to the compound that follows.
**Query** What value of L-glutamate CRC HillSlope has been reported for the following compound? CCC(=O)C(C[C@H](C)N(C)C)(c1ccccc1)c1ccccc1
**Result** 1.3

---

What L-glutamate CRC HillSlope was measured for each of the following?
Assayed System: human NMDA receptor GluN1-GluN2A (Homo sapiens, UniProt Q05586+Q12879)
Construct: expressed in transfected cells; host or cells: CHO
Sequence (Q12879 23-1464, other chains not shown): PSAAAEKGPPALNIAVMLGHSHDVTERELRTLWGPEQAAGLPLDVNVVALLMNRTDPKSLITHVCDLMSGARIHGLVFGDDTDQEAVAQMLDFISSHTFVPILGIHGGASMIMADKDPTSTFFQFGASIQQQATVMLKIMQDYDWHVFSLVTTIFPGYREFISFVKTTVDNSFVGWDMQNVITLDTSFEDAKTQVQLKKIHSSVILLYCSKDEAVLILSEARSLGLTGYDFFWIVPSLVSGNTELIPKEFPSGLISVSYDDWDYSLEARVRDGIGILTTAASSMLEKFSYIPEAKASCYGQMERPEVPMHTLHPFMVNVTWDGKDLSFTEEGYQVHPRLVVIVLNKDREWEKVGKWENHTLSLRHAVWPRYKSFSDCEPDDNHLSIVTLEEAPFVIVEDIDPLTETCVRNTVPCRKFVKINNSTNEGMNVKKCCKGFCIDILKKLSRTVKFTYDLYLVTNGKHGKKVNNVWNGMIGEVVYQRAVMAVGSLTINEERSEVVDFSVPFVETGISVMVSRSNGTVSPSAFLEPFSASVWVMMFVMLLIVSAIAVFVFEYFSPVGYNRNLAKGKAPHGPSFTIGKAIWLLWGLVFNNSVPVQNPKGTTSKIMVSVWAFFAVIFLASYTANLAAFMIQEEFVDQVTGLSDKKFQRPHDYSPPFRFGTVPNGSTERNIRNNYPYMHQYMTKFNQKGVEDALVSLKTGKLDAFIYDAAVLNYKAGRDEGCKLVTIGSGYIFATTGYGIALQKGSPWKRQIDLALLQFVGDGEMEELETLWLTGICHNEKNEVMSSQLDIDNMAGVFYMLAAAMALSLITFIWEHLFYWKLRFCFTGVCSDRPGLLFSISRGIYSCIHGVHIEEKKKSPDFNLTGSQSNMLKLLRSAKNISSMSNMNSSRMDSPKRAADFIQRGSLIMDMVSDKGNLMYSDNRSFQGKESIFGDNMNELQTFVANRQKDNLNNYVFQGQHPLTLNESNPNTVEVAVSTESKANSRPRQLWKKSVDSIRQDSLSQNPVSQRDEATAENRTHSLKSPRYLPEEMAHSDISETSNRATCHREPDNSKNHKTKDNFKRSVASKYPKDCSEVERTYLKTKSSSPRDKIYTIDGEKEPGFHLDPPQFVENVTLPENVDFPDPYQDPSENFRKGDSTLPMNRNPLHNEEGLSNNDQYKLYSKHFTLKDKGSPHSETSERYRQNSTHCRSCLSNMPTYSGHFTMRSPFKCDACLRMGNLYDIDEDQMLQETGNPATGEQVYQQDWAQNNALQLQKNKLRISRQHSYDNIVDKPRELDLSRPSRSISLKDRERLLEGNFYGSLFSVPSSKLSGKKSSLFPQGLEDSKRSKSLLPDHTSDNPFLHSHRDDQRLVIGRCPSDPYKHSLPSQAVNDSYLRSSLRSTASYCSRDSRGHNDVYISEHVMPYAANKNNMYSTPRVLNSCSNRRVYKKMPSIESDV
Protocol Notes: FLIPR calcium assay, test item effect on L-glutamate CRC, GluN1-GluN2A-CHO
Type: cell-based
Details: with test item 781 nM
Counter-ions that a name gives are not always drawn.
One number for each entry.

{"columns": ["Compound", "Assayed System", "L-glutamate CRC HillSlope"],
 "data": [
  ["CCC(=O)C(C[C@H](C)N(C)C)(c1ccccc1)c1ccccc1", "human NMDA receptor GluN1-GluN2A (Homo sapiens, UniProt Q05586+Q12879)", 1.1],
  ["CNC1(c2ccccc2Cl)CCCCC1=O (racemic) [(±)-Ketamine, (±)-ketamine hydrochloride]", "human NMDA receptor GluN1-GluN2A (Homo sapiens, UniProt Q05586+Q12879)", 1.0],
  ["CC12CC3CC(C)(C1)CC(N)(C3)C2 [Memantine, memantine hydrochloride]", "human NMDA receptor GluN1-GluN2A (Homo sapiens, UniProt Q05586+Q12879)", 1.2]
]}

**Query** What value of L-glutamate CRC HillSlope has been reported for the following compound? COc1ccc2c(c1)[C@]13CCCC[C@@H]1[C@H](C2)N(C)CC3 [Dextromethorphan, hydrobromide monohydrate]
**Result** 1.3

---

What L-glutamate CRC HillSlope was measured for each of the following?
Assayed System: human NMDA receptor GluN1-GluN2D (Homo sapiens, UniProt O15399+Q05586)
Construct: expressed in transfected cells; host or cells: CHO
Protocol Notes: FLIPR calcium assay, test item effect on L-glutamate CRC, GluN1-GluN2D-CHO
Type: cell-based
Details: with test item 3.1 μM
Counter-ions that a name gives are not always drawn.
One number for each entry.

Some solved entries appear below for comparison.
{"columns": ["Compound", "L-glutamate CRC HillSlope"],
 "data": [
  ["CCC(=O)C(C[C@H](C)N(C)C)(c1ccccc1)c1ccccc1", 1.5],
  ["COc1ccc2c(c1)[C@]13CCCC[C@@H]1[C@H](C2)N(C)CC3 [Dextromethorphan, hydrobromide monohydrate]", 1.9],
  ["CC12CC3CC(C)(C1)CC(N)(C3)C2 [Memantine, memantine hydrochloride]", 1.3]
]}

Shifting focus to the compound that follows.
**Query** Given the entry CNC1(c2ccccc2Cl)CCCCC1=O (racemic) [(±)-Ketamine, (±)-ketamine hydrochloride] , what L-glutamate CRC HillSlope was observed with human NMDA receptor GluN1-GluN2D (Homo sapiens, UniProt O15399+Q05586)?
**Result** 1.8
